B1: POU domain, class 4, transcription factor 1, residues 266 to 347; numbered along this chain, Q01851 (parent)
chain: RELEAFAERFKQRRIKLGVTQADVGSALANLKIPGVGSLSQSTICRFESLTLSHNNMIALKPILQAWLEEAEGAQREKMNKP

# Variants of: B1
# EXPERIMENTAL_PROTOCOL: abundance fitness (aPCA) (normalised: wild type 0, dead -1); higher = more abundant; growth selection in yeast, the domain comes from the species named
# RUN_CONDITIONS: Homo sapiens
Binary classification by abundance fitness, with -0.05 as an inclusive lower bound for True; all other cases are False.

query: Tell me whether abundance fitness is at least -0.05 here: "V24P"
result: False

query: Try this variant too: "L64G"
result: False

query: Try this variant too: "G35F"
result: True

query: Try this variant too: "V36K"
result: False

query: Try this variant too: "E8C"
result: False

query: Try this variant too: "C45K"
result: True

query: Try this variant too: "L39K"
result: False

query: Try this variant too: "E72P"
result: False

query: Try this variant too: "A66T"
result: True

query: Try this variant too: "S42E"
result: True

query: Try this variant too: "K78Y"
result: False

query: Try this variant too: "P34K"
result: False

query: Try this variant too: "A66I"
result: False

query: Try this variant too: "L60H"
result: False

query: Try this variant too: "I58T"
result: True

query: Try this variant too: "R76G"
result: True

query: Try this variant too: "E4C"
result: False

query: Try this variant too: "A59H"
result: True

query: Try this variant too: "P34T"
result: True

query: Try this variant too: "L52D"
result: False

query: Try this variant too: "L52E"
result: False

query: Try this variant too: "E4T"
result: True

query: Try this variant too: "A74C"
result: True

query: Try this variant too: "N56Q"
result: True

query: Try this variant too: "S40L"
result: False

query: Try this variant too: "R76V"
result: True

query: Try this variant too: "I63L"
result: False

query: Try this variant too: "L68M"
result: False

query: Try this variant too: "L31A"
result: False

query: Try this variant too: "Q65L"
result: False

query: Try this variant too: "T51E"
result: True

query: Try this variant too: "E2I"
result: False

query: Try this variant too: "N30P"
result: True

query: Try this variant too: "A71E"
result: False

query: Try this variant too: "E48N"
result: False

query: Try this variant too: "G37R"
result: False

query: Try this variant too: "H54N"
result: False

query: Try this variant too: "F6G"
result: False

query: Try this variant too: "I44F"
result: False

query: Try this variant too: "S26N"
result: True

query: Try this variant too: "E4D"
result: True

query: Try this variant too: "S49V"
result: False

query: Try this variant too: "P82F"
result: False

query: Try this variant too: "N80T"
result: True

query: Try this variant too: "F10K"
result: False

query: Try this variant too: "R13K"
result: True

query: Try this variant too: "E69P"
result: False

query: Try this variant too: "E48I"
result: False

query: Try this variant too: "M79L"
result: True

query: Try this variant too: "E72Q"
result: False

query: Try this variant too: "A59C"
result: False

query: Try this variant too: "S42Y"
result: False

query: Try this variant too: "E70S"
result: True

query: Try this variant too: "S42K"
result: True

query: Try this variant too: "Q41F"
result: True

query: Try this variant too: "P34G"
result: False

query: Try this variant too: "R46H"
result: False

query: Try this variant too: "N56L"
result: True

query: Try this variant too: "I44W"
result: False

query: Try this variant too: "Q75M"
result: True

query: Try this variant too: "A29I"
result: True

query: Try this variant too: "L50V"
result: True

query: Try this variant too: "V19D"
result: False

query: Try this variant too: "N55P"
result: True

query: Try this variant too: "G37S"
result: True

query: Try this variant too: "G73A"
result: True

query: Try this variant too: "I63V"
result: True

query: Try this variant too: "A27L"
result: False

query: Try this variant too: "L68Y"
result: False

query: Try this variant too: "V24N"
result: False

query: Try this variant too: "E69H"
result: False

query: Try this variant too: "T20N"
result: False

query: Try this variant too: "L17S"
result: False

query: Try this variant too: "I58M"
result: True

query: Try this variant too: "K11T"
result: True

query: Try this variant too: "L52K"
result: False

query: Try this variant too: "A71S"
result: False

query: Try this variant too: "F47I"
result: False

query: Try this variant too: "F47A"
result: False

query: Try this variant too: "S26R"
result: True

query: Try this variant too: "F47P"
result: False

query: Try this variant too: "L60T"
result: False

query: Try this variant too: "Q75W"
result: False
